System: NCI-H226 lung
Assay: NCI-60 one-dose screen, 48 h (100 = growth as untreated, 0 = no growth, -100 = all killed)
Conditions: 10 µM unless noted
The panel holds about 83,000 compounds, 20% with a hit somewhere; the sample as a whole holds those more often.
Quantity Name: growth (%)
One number for each entry, in %.

Illustrative cases are given below, each with its answer.
C[C@H](CCC(=O)NCc1ccc(C(=O)Nc2ccccc2N)cc1)[C@H]1CC[C@H]2[C@@H]3[C@@H](O)C[C@@H]4C[C@H](O)CC[C@]4(C)[C@H]3CC[C@]12C = 57.1
CCOP(=O)(OCC)OC[C@]12CCC(C)(C)C=C1[C@H]1CC[C@@H]3[C@@]4(C)CC[C@H](OP(=O)(OCC)OCC)C(C)(C)[C@@H]4CC[C@@]3(C)[C@]1(C)CC2 = -72.3
COc1ccccc1NCc1cccn1Cc1ccc(F)cc1 = 90.4

Each molecule below has a recorded value; state its growth.
1. CCN(CC)CCn1c2ccc(O)cc2c2sc3cc(OC)ccc3c(=O)c21
2. C=C(C=O)[C@@H]1CC[C@]2(C)[C@H](C(=O)C=C3[C@H]4C[C@](C)(C(=O)OC)CC[C@]4(C)CC[C@]32C)[C@@]1(C)CCC#N
3. CCC(NC(c1cc2cccc3ccc4cccc1c4c32)c1nnnn1C(C)(C)C)C1CCCCC1 (stereo not given)
4. C=CC(=O)N1CCC=C(c2cc3c(N[C@H](C)c4ccccc4)ncnc3[nH]2)C1
5. CCN1CCN(Cc2ccc(C(=O)Nc3ccc(C)c(Oc4ccc(-c5[nH]nc6ncnc(N)c56)cc4)c3)cc2C(F)(F)F)CC1
6. NC(N)=Nc1ccc(Oc2cccc(NC(N)=Nc3ccc(Cl)c(C(F)(F)F)c3)c2)cc1
7. C#CCC#CCN1CCC[C@H]1C(=O)NCC(=O)OC

Resp:
1. 72.6
2. -53.6
3. 75
4. 58.5
5. 85.8
6. 73
7. 104

---

Test system: MDA-MB-231 breast
Test: NCI-60 one-dose screen, 48 h (100 = growth as untreated, 0 = no growth, -100 = all killed)
Settings: 10 µM unless noted
About 83,000 compounds went through this panel and 20% of them were active in at least one assay; those are over-represented in the sample as a whole.
Exercise: state measured growth for each of the compounds provided.
Give bare numbers, in %.

CS(=O)(=O)c1ncc(-c2ccccc2)cn1 = 99.8
Cc1ccc(NC(=O)CNc2cc(C(N)=O)cc(F)c2C)c(Cl)c1 = 67
C=CC(=O)N1CC=C(c2cc3c(N[C@H](C)c4ccccc4)ncnc3[nH]2)CC1 = 47.8
CC(C)(C)c1ccc(-c2nnc(-c3nc4ccccc4nc3Cl)o2)cc1 = 90.5

Read the next record carefully.
Req: Recorded growth for O=C(Nc1cccc(C(F)(F)F)c1)c1cc(-c2ccc(F)cc2F)ccc1O , please?
Resp: 3.11

---

System: SK-MEL-2 melanoma
Test: NCI-60 one-dose screen, 48 h
Details: 10 µM unless noted
About 83,000 compounds went through this panel and 20% of them were active in at least one assay; those are over-represented in the sample as a whole. Activity calls are given as the source filed them. The calls were made as follows: active = growth percent below 10; inactive = the rest.
One label from this list, please: Yes for active, No for inactive

// known answers, use as guide
COc1ccccc1NC1=C(Cl)C(=O)c2nc(C)ccc2C1=O = No
CC/C(=C/c1cc(OC)ccc1O)c1ccc2cc(OC)ccc2[o+]1 = No
C[C@@H](Nc1ncnc2ccc(-c3cnc(Cl)c(NS(C)(=O)=O)c3)cc12)c1ccccc1 = No

Req: Call for entry N#Cc1cccc(NC(=O)c2cc(-c3ccc(F)cc3F)ccc2O)c1 :
Resp: Yes

Req: Call for entry Cc1ccc(NC(=O)c2ccc(CN3CCN(C)CC3)cc2)cc1Oc1ccc(-c2[nH]nc3ncnc(N)c23)cc1 :
Resp: No

Req: Call for entry CC(C)(C)c1ccc(C(=O)Nc2sc3c(c2C(N)=O)CC/C(=N\O)C3)cc1 :
Resp: Yes

Req: Call for entry N/C(=N\C(N)=N\c1nc2ccccc2s1)c1cccc(F)c1 :
Resp: No

---

Tested on: SK-MEL-5 melanoma
Assay: NCI-60 one-dose screen, 48 h (100 = growth as untreated, 0 = no growth, -100 = all killed)
Conditions: 10 µM unless noted
The panel holds about 83,000 compounds, 20% with a hit somewhere; the sample as a whole holds those more often.
Assign met whenever growth does not fall below 20%; assign not met whenever it does.

COc1ccc(C2CC(c3ccc(Nc4nc(NCCO)nc(N5CCOCC5)n4)cc3)=Nc3c(N)nc(N)nc3N2)cc1 (stereo not drawn) = met
C=CCn1c(-c2nc3ccc(C(=C(C#N)C#N)c4ccccc4)cc3[nH]2)cc2cc(Br)ccc21 = met
CCCCNNC(=O)c1ccc(-c2cccc(F)c2F)cc1 = not met

Req: Is the recorded value of growth equal to or greater than 20% for this molecule? CC1(C)CC[C@]2(CN)CC[C@]3(C)C(=CC[C@@H]4[C@@]5(C)CCCNC(C)(C)[C@@H]5CC[C@]43C)[C@H]2C1
Resp: met

Req: Is the recorded value of growth equal to or greater than 20% for this molecule? COc1ccc(S(=O)(=O)NCCCNc2nccc(-c3[nH]c(-c4ccccc4)nc3-c3ccc(Cl)c(O)c3)n2)cc1
Resp: met

Req: Is the recorded value of growth equal to or greater than 20% for this molecule? O=S(=O)(NCCNc1nccc(-n2cnc3ccccc32)n1)c1ccc(C(F)(F)F)cc1
Resp: not met

Req: Is the recorded value of growth equal to or greater than 20% for this molecule? Cc1ccc(-c2nnc(SCc3ccc(O)c4ncccc34)o2)cc1
Resp: not met

Req: Is the recorded value of growth equal to or greater than 20% for this molecule? O=C(NNc1nc2cc(F)cc(F)c2n2cccc12)c1cnccn1
Resp: not met

---

Test system: KM12 colon
Assay: NCI-60 one-dose screen, 48 h (100 = growth as untreated, 0 = no growth, -100 = all killed)
Settings: 10 µM unless noted
The panel holds about 83,000 compounds, 20% with a hit somewhere; the sample as a whole holds those more often.
Exercise: state measured growth for each of the molecules provided.
Give bare numbers, in %.

Illustrative cases are given below, each with its answer.
Cc1c(Cl)cccc1S(=O)(=O)Nc1ccc2c(c1)C(=O)N(C1CCC(=O)NC1=O)C2=O (centres undefined) = 92.2
O=S(=O)(Nc1ccc2c(c1)OCO2)c1ccc(-c2cnc(C3CC3)o2)cc1 = 23.1
Cc1ccc(C2=Nn3c(nnc3-c3ccccc3)SC2)cc1 = 36.4

Read the next record carefully.
Req: Form: Entry = CCOC(=O)c1c(Nc2ccccc2)nn2c(-c3ccc(OC)cc3)ccnc12 | System = KM12 colon | growth = ____
Resp: 73.9

---

Tested on: TK-10 renal
Assay: NCI-60 one-dose screen, 48 h
Settings: 10 µM unless noted
Procedure: Growth inhibition of the TK-10 human tumor cell line is measured as a screen for anti-cancer activity. Cells are grown in 96 well plates and exposed to the test compound for 48 hours. Compounds are tested at a single concentration, which is 10^-5 M for most compounds. The reported endpoint is percent growth (GI% or GIPRCNT), where numbers from 0 - 100% represent growth inhibition, and numbers from -100% - 0 represent cell death. For example, a value of 40 represents 60% growth inhibition. […]
Compounds without any hit were thinned out: in the full panel of roughly 83,000, 20% have a hit. Calls of active or inactive are those of the source. Rule for the calls: active = growth percent below 10; inactive = the rest.
One label from this list, please: true for active, false for inactive

// known answers, use as guide
Nc1nc(-c2cccc([N+](=O)[O-])c2)c(N=Nc2ccccc2)s1 = false
N#Cc1cnc2ccc(-c3cnc(N)nc3)cc2c1N1CCc2cc(F)c(Cl)cc21 = true

Req: Call for entry O=[N+]([O-])c1cc(/C=N/Nc2nc(N/N=C/c3ccc(Cl)c([N+](=O)[O-])c3)nc(N3CCCCC3)n2)ccc1Cl :
Resp: false

Req: Call for entry COc1ccccc1-n1cc(C#N)c(N)c1C(=O)c1ccc(C)cc1 :
Resp: false

Req: Call for entry Cc1cccc2c3c(sc12)C(c1ccc(F)cc1)C(C#N)=C(/N=C/c1ccc(Cl)cc1)O3 (stereo not drawn) :
Resp: false

Req: Call for entry O=C(NNc1nc2cc(F)c(F)cc2n2c(CN3CC4CNCC4C3)ccc12)c1cnccn1 (stereo not drawn) :
Resp: false

Req: Call for entry COc1ccc(-c2nc(C(Cl)Cl)nc3cc(-c4ccccc4)nn23)cc1 :
Resp: false

Req: Call for entry O=C1[C@H]2Cc3c([nH]c4ccccc34)[C@@H](c3ccc(Cl)cc3)N2C(=O)CN1C1CCN(Cc2ccccc2)CC1 :
Resp: false

---

Tested on: SK-MEL-2 melanoma
Test: NCI-60 one-dose screen, 48 h (100 = growth as untreated, 0 = no growth, -100 = all killed)
Settings: 10 µM unless noted
This is part of a sample that, as a whole, favours compounds with a hit. Of some 83,000 tested, about 20% had one in any assay. The source made the active and inactive calls. The calls were made as follows: active = growth percent below 10; inactive = the rest.
Quantity Name: growth

Illustrative cases are given below, each with its answer.
Cc1ccc(-c2cc3nc(C(Cl)Cl)nc(C)n3n2)cc1 = 110% (inactive)
COC(=O)C(Cc1ccccc1)Nc1nc(NC(Cc2ccccc2)C(=O)OC)nc(N2CCOCC2)n1 (centres undefined) = 111% (inactive)

Each compound below has a recorded value; state its growth.
1. Cc1ccc(-n2cc(/C=N/NC(=O)c3ccncc3)c(-c3ccc(S(C)(=O)=O)cc3)n2)cc1
2. C=C(C)[C@@H]1CC[C@]2(COCCCNCCC#N)CC[C@]3(C)[C@H](CC[C@@H]4[C@@]5(C)CC[C@H](OCCCNCCC#N)C(C)(C)[C@@H]5CC[C@]43C)[C@@H]12

Resp:
1. 97.7% (inactive)
2. 93.7% (inactive)
